Sourced from patent US20150315218A1

test-name: Single-dose toxicokinetic and tolerability study of prodrugs in dogs
Assay type: in vivo, dog
condition: male, dog, plasma, oral, 46 mg/kg, dog 3101M, day 8, Icb 46 mg/kg BID dry-filled capsules; read-out: C24h

compound-structure	unit-descriptor	concentration at 24 h
COc1cnc(-n2cnc(C)n2)c2[nH]cc(C(=O)C(=O)N3CCN(C(=O)c4ccccc4)CC3)c12	µM	10.6

* * *

test-name: Single-dose oral toxicokinetic study of prodrugs in rats
Type: in vivo, rat
condition: male, CD, rat, plasma, po, 16 mg/kg; read-out: AUC
property-label: AUC (µM·h)

compound	readout-value
COc1cnc(OC)c2c1c(C(=O)C(=O)N1CCN(C(=O)c3ccccc3)CC1)cn2COP(=O)(O)O [Iab]	0.02
COc1ncc(OC)c2c(C(=O)C(=O)N3CCN(C(=O)c4ccccc4)CC3)c[nH]c12 [IVa]	67

* * *

test-name: IV and PO pharmacokinetic studies of prodrug salts (Iab, Ibb, Icb) in the dog, with historical parent data
Assay type: in vivo, beagle dogs
condition: plasma, iv, 1 mg/kg, read-out: CLtot
Method: The IV and PO studies of Iab were conducted in a crossover fashion in three male beagle dogs (11±1.1 kg, Marshall Farms USA Inc., North Rose, N.Y.). There was a two-week washout period between the IV and PO studies. In the IV study, Iab was infused via the cephalic vein at 1.2 mg/kg (free acid, or 0.95 mg/kg of IVa equivalent) over 5 min at a constant rate of 0.1 mL/kg/min. The concentration of the dosing solution was 2.4 mg/mL, and the dosing volume was 0.5 mL/kg. […]

molecule	clearance, mL/min/kg
O=C(C(=O)N1CCN(C(=O)c2ccccc2)CC1)c1c[nH]c2c(-n3ccnn3)ncc(F)c12 [IVb]	9.8

* * *

test-name: Single dose study of Compound IVa in healthy human volunteers (capsule/solution, fasted/fed; first-in-human)
Type: in vivo
condition: human, plasma, oral; 800 mg capsule with food, 12 hours post dose

compound-structure	concentration at 12 h, ng/mL
COc1ncc(OC)c2c(C(=O)C(=O)N3CCN(C(=O)c4ccccc4)CC3)c[nH]c12	218

* * *

Below, each of the compounds is paired with its reported bioavailability value.
test-name: IV and PO pharmacokinetic studies of prodrug salts (Iab, Ibb, Icb) in the rat, with historical parent data
Assay type: in vivo, Sprague-Dawley rats
condition: plasma, po, range over rats, dogs and monkeys, read-out: oral bioavailabilities of parent after administration of prodrug
Procedure: All blood samples (0.3 mL) were colleted in microtainers containing K2EDTA (Becton Dickinson, Franklin Lakes, N.J.) and placed on chipped ice. After centrifugation, plasma was separated and stored at −20° C. until analysis. […] The pharmacokinetic parameters of Iab and IVa were calculated by Non-Compartmental Analysis using the […]™ software program (version 4.0.2, InnaPhase Co., Philadelphia, Pa.). The Cmax and Tmax values were recorded directly from experimental observations. […]
property-label: bioavailability

compound-structure	readout-value
COc1cnc(-n2cnc(C)n2)c2[nH]cc(C(=O)C(=O)N3CCN(C(=O)c4ccccc4)CC3)c12	80 to 122%
COc1ncc(OC)c2c(C(=O)C(=O)N3CCN(C(=O)c4ccccc4)CC3)c[nH]c12	62 to 94%

* * *

test-name: Oral dose escalation study in rats (Study D of Ica; historical Study E of IVc)
Format: in vivo
condition: Sprague-Dawley, rat, plasma, po, 200 mg/kg
property-label: Tmax (h)

molecule	readout-value
COc1cnc(-n2cnc(C)n2)c2[nH]cc(C(=O)C(=O)N3CCN(C(=O)c4ccccc4)CC3)c12 [IVc]	4

* * *

test-name: IV and PO pharmacokinetic studies of prodrug salts (Iab, Ibb, Icb) in the monkey, with historical parent data
Format: in vivo, cynomolgus monkeys
condition: cynomolgus monkey, plasma, iv, 1 mg/kg; read-out: CLtot

compound-structure	clearance
O=C(C(=O)N1CCN(C(=O)c2ccccc2)CC1)c1c[nH]c2c(-n3ccnn3)ncc(F)c12	3.7 mL/min/kg

* * *

test-name: Single-dose toxicokinetic and tolerability study of prodrugs in dogs
Type: in vivo, dog
condition: female, dog, plasma, po, 92 mg/kg, dog 3201F, day 1, Ibb 92 mg/kg QD dry-filled capsules; emesis

compound-structure	AUC(0-inf) [µM·h]
O=C(C(=O)N1CCN(C(=O)c2ccccc2)CC1)c1c[nH]c2c(-n3ccnn3)ncc(F)c12	329

* * *

test-name: Oral dose escalation study in rats (Study D of Ica; historical Study E of IVc)
Type: in vivo
condition: male, Sprague-Dawley, rat, plasma, po, 5 mg/kg; read-out: Mean AUCtot
Method: Pharmacokinetic analysis was performed on Kinetica™. The brain samples were blotted dry and the wet weights were recorded.

molecule	unit-descriptor	AUC
COc1cnc(-n2cnc(C)n2)c2[nH]cc(C(=O)C(=O)N3CCN(C(=O)c4ccccc4)CC3)c12 [IVc]	µM·h	109

* * *

test-name: Oral dose escalation study in rats (Study D of Ica; historical Study E of IVc)
Type: in vivo
condition: male, Sprague-Dawley, rat, plasma, po, 25 mg/kg; read-out: Mean AUCtot
property-label: AUC (µM·h)

molecule	unit-descriptor	readout-value
COc1cnc(-n2cnc(C)n2)c2[nH]cc(C(=O)C(=O)N3CCN(C(=O)c4ccccc4)CC3)c12 [IVc]	µM·h	586

* * *

test-name: IV and PO pharmacokinetic studies of prodrug salts (Iab, Ibb, Icb) in the dog, with historical parent data
Type: in vivo, beagle dogs
condition: male, beagle, plasma, prodrug after IV administration, read-out: CLtot (mL/min/kg), IV

molecule	clearance / mL/min/kg
COc1cnc(OC)c2c1c(C(=O)C(=O)N1CCN(C(=O)c3ccccc3)CC1)cn2COP(=O)(O)O [Iab]	70
O=C(C(=O)N1CCN(C(=O)c2ccccc2)CC1)c1cn(COP(=O)(O)O)c2c(-n3ccnn3)ncc(F)c12 [Ibb]	27

* * *

Below, each of the compounds is paired with its reported AUC value.
test-name: IV and PO pharmacokinetic studies of prodrug salts (Iab, Ibb, Icb) in the dog, with historical parent data
Assay type: in vivo, beagle dogs
condition: plasma, iv, 1 mg/kg, read-out: AUCtot
Method: The IV and PO studies of Iab were conducted in a crossover fashion in three male beagle dogs (11±1.1 kg, Marshall Farms USA Inc., North Rose, N.Y.). There was a two-week washout period between the IV and PO studies. In the IV study, Iab was infused via the cephalic vein at 1.2 mg/kg (free acid, or 0.95 mg/kg of IVa equivalent) over 5 min at a constant rate of 0.1 mL/kg/min. The concentration of the dosing solution was 2.4 mg/mL, and the dosing volume was 0.5 mL/kg. […]

compound-structure	AUC, µM·h
O=C(C(=O)N1CCN(C(=O)c2ccccc2)CC1)c1c[nH]c2c(-n3ccnn3)ncc(F)c12	3.8
COc1cnc(-n2cnc(C)n2)c2[nH]cc(C(=O)C(=O)N3CCN(C(=O)c4ccccc4)CC3)c12	14

* * *

test-name: IV and oral rat PK (MAP) studies A, B, C of phosphate prodrugs and parent studies A1, B1, C1
Assay type: in vivo, Sprague-Dawley rats
condition: male, Sprague-Dawley, rat, plasma, oral, 5 mg/kg, rats, historic, after PO dosing of parent 5 mpk; read-out: Cp @ 24 hr p.o.

compound-structure	concentration at 24 h
COc1cnc(-n2cnc(C)n2)c2[nH]cc(C(=O)C(=O)N3CCN(C(=O)c4ccccc4)CC3)c12	61 nM
COc1ncc(OC)c2c(C(=O)C(=O)N3CCN(C(=O)c4ccccc4)CC3)c[nH]c12	9.2 nM
O=C(C(=O)N1CCN(C(=O)c2ccccc2)CC1)c1c[nH]c2c(-n3ccnn3)ncc(F)c12	161 nM

* * *

test-name: Oral dose escalation study in rats (Study D of Ica; historical Study E of IVc)
Assay type: in vivo
condition: male, Sprague-Dawley, rat, plasma, po, 200 mg/kg; read-out: Mean AUCtot

compound-structure	AUC [µM·h]
COc1cnc(-n2cnc(C)n2)c2[nH]cc(C(=O)C(=O)N3CCN(C(=O)c4ccccc4)CC3)c12	2920

* * *

test-name: Single-dose oral toxicokinetic study of prodrugs in rats
Type: in vivo, rat
condition: CD, rat, plasma; male rats, Iab 267 mg/kg PO; analyte = label; read-out: C24 h

compound	concentration at 24 h [nM]
COc1ncc(OC)c2c(C(=O)C(=O)N3CCN(C(=O)c4ccccc4)CC3)c[nH]c12 [IVa]	1900

* * *

test-name: Single-dose toxicokinetic and tolerability study of prodrugs in dogs
Assay type: in vivo, dog
condition: male, dog, plasma, oral, 25 mg/kg, dog 2101M, day 8, Icb 25 mg/kg QD aqueous solution

compound-structure	unit-descriptor	Cmax
COc1cnc(-n2cnc(C)n2)c2[nH]cc(C(=O)C(=O)N3CCN(C(=O)c4ccccc4)CC3)c12	µM	59.4

* * *

test-name: IV and PO pharmacokinetic studies of prodrug salts (Iab, Ibb, Icb) in the dog, with historical parent data
Assay type: in vivo, beagle dogs
condition: plasma, historical parent, IV 1 mg/kg, read-out: Vdss (L/kg), IV

compound	Vd [L/kg]
COc1ncc(OC)c2c(C(=O)C(=O)N3CCN(C(=O)c4ccccc4)CC3)c[nH]c12 [IVa]	0.45
